Test system: monoclonal antibody 12-9-9
ASSAY_PROTOCOL: In vitro binding assay (ELISA) with monoclonal antibody 12-9-9
Set-up: species or system mouse; key: 0: no binding to 12-9-9 detectable in ELISA; 1: weak binding: binding of mimotope weaker compared to the minimal original sequence p5436; 2: strong binding: binding of mimotope similar to the minimal original sequence p5436
ASSAY_CONDITIONS: binding capacity to 12-9-9 in ELISA, peptide-BSA coated (1 μM), compared with p5436
VALUE_TYPE: Binding
No unit in the answer, only the number.

The cases that follow already have their Binding on record.
Param item = RNEEGAPC [p5443, mimotope] ; retrieve measured Binding. 2

Fill blank: measured Binding of the sequence RQEEGAPC [p5589, mimotope] is ____. 2

--- query ---
Would you mind telling me what Binding value was observed for KNAEGAPC [p5439, mimotope] ? 2
